condition_context: in n-propanol, 288.15 K
observation_type: solubility (mole fraction)
Returns: the value as a bare number; no unit string appended.

Give solubility (mole fraction) for the following molecule: COc1ccc2nc(SCc3ncc(C)c(OC)c3C)[nH]c2c1
0.0134

----------
condition_context: in ethanol, 292.25 K
observation_type: solubility (mole fraction)
Returns: the value as a bare number; no unit string appended.

Give solubility (mole fraction) for the following compound: COc1ccc2nc(SCc3ncc(C)c(OC)c3C)[nH]c2c1
0.0323

----------
condition_context: in isopropanol, 284.35 K
observation_type: solubility (mole fraction)
Returns: the value as a bare number; no unit string appended.

Give solubility (mole fraction) for the following compound: COc1ccc2nc(SCc3ncc(C)c(OC)c3C)[nH]c2c1
0.0044

----------
condition_context: in isopropanol, 307.65 K
observation_type: solubility (mole fraction)
Returns: the value as a bare number; no unit string appended.

Give solubility (mole fraction) for the following compound: COc1ccc2nc(SCc3ncc(C)c(OC)c3C)[nH]c2c1
0.0234

----------
condition_context: in methanol, 280.35 K
observation_type: solubility (mole fraction)
Returns: the value as a bare number; no unit string appended.

Give solubility (mole fraction) for the following molecule: COc1ccc2nc(SCc3ncc(C)c(OC)c3C)[nH]c2c1
0.0127

----------
condition_context: in ethanol, 288.15 K
observation_type: solubility (mole fraction)
Returns: the value as a bare number; no unit string appended.

Give solubility (mole fraction) for the following compound: COc1ccc2nc(SCc3ncc(C)c(OC)c3C)[nH]c2c1
0.0248

----------
condition_context: in ethanol, 319.65 K
observation_type: solubility (mole fraction)

Give solubility (mole fraction) for the following compound: COc1ccc2nc(SCc3ncc(C)c(OC)c3C)[nH]c2c1
0.141

----------
condition_context: in isopropanol, 315.15 K
observation_type: solubility (mole fraction)
Returns: the value as a bare number; no unit string appended.

Give solubility (mole fraction) for the following compound: COc1ccc2nc(SCc3ncc(C)c(OC)c3C)[nH]c2c1
0.037

----------
condition_context: in n-propanol, 296.65 K
observation_type: solubility (mole fraction)
Returns: the value as a bare number; no unit string appended.

Give solubility (mole fraction) for the following molecule: COc1ccc2nc(SCc3ncc(C)c(OC)c3C)[nH]c2c1
0.0234

----------
condition_context: in ethyl acetate, 284.35 K
observation_type: solubility (mole fraction)
Returns: the value as a bare number; no unit string appended.

Give solubility (mole fraction) for the following compound: COc1ccc2nc(SCc3ncc(C)c(OC)c3C)[nH]c2c1
0.004

----------
condition_context: in isopropanol, 288.15 K
observation_type: solubility (mole fraction)
Returns: the value as a bare number; no unit string appended.

Give solubility (mole fraction) for the following compound: COc1ccc2nc(SCc3ncc(C)c(OC)c3C)[nH]c2c1
0.0058

----------
condition_context: in acetone, 307.65 K
observation_type: solubility (mole fraction)
Returns: the value as a bare number; no unit string appended.

Give solubility (mole fraction) for the following molecule: COc1ccc2nc(SCc3ncc(C)c(OC)c3C)[nH]c2c1
0.0263

----------
condition_context: in methanol, 296.65 K
observation_type: solubility (mole fraction)

Give solubility (mole fraction) for the following molecule: COc1ccc2nc(SCc3ncc(C)c(OC)c3C)[nH]c2c1
0.0442
